# procedure-details: Parallel Artificial Membrane Permeability Assay (PAMPA)
# Assay type: in vitro ADME
# recorded-conditions: PAMPA; donor pH 6.2; acceptor pH 7.4; read-out: PAMPA Pe
reported-property: Papp at 30 min, 100 μM (×10⁻⁶ cm/s)
Only the number, expressed in ×10⁻⁶ cm/s, is required.

Asked: State its Papp at 30 min, 100 μM for this molecule: Cc1ccc2nc(-c3ccc4nc(-c5ccc(NC(=O)c6cccc(Cl)c6)cc5)sc4c3)sc2c1S(=O)(=O)O
Given back: 0.22

###

# measurement-target: HCV NS3 helicase NS3h_1b(con1) (Hepatitis C virus genotype 1b, UniProt Q9WMX2)
# Construct: truncated C-terminally His-tagged NS3 proteins lacking the N-terminal protease, called NS3h; His-tag (C); made in house
# Sequence (Q9WMX2 1192-1657): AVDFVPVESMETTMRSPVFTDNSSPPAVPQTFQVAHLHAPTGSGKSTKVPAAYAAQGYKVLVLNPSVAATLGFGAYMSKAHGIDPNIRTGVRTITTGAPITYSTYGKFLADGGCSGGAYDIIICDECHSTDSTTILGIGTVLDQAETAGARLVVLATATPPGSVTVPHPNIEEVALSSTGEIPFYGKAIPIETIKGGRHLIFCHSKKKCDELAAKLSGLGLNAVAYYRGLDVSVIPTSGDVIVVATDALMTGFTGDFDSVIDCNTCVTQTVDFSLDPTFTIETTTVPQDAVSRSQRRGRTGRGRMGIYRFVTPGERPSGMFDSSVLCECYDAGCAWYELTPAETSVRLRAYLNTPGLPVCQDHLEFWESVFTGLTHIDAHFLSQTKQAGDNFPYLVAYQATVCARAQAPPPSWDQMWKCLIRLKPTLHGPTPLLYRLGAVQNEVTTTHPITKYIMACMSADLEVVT
# procedure-details: MBHA screen of NCI mechanistic set library at 20 μM (percent inhibition, compound interference)
# Format: biochemical
# recorded-conditions: compounds at 20 μM, MBHA with DNA substrate; assay interference calculated with Equation 2
reported-property: Int.* (Ratio) (Interference)
Only the number, expressed in Ratio, is required.

[
  {
    "compound": "CO[C@H]1[C@@H](O)[C@@H](C)O[C@H](O[C@H]2[C@H](Oc3cccc4c(O)c5c(=O)oc6ccc(C)c7c(=O)oc(c34)c5c67)O[C@H](C)[C@H](O)[C@@H]2O)[C@@H]1O",
    "endpoint-unit": "Ratio",
    "obs-value": 1.03
  },
  {
    "compound": "Cc1nnc(-n2c(O)cc(=O)n(-c3ccccc3)c2=S)nc1/C=C/c1ccc(N(C)C)cc1",
    "endpoint-unit": "Ratio",
    "obs-value": 0.98
  },
  {
    "compound": "CN(C)C(=S)SSC(=S)N(C)C",
    "endpoint-unit": "Ratio",
    "obs-value": 0.98
  }
]

Asked: State its Int.* (Ratio) (Interference) for this compound: Cc1ccc(NC(=S)C#N)c(C)c1
Given back: 0.95

Asked: State its Int.* (Ratio) (Interference) for this compound: COC(=O)[C@@H]1c2cc3c(c(O)c2[C@@H](OC)C[C@@]1(C)O)C(=O)c1c(O)cc2c(c1C3=O)O[C@@H]1O[C@@]2(C)[C@H](O)[C@@H](N(C)C)[C@@H]1O
Given back: 0.76

Asked: State its Int.* (Ratio) (Interference) for this compound: Cc1ccc2ccc3ccc(C)nc3c2n1
Given back: 1.01

Asked: State its Int.* (Ratio) (Interference) for this compound: CC1CCCC(C(=O)/C(=C/c2cccc(Cl)c2)C(=O)C(=O)O)C1 (stereo not shown)
Given back: 1.01
